Species: Ovis aries
procedure-summary: Selectivity index, ratio of IC50 for Ovis aries (sheep) COX-1 to IC50 for Ovis aries (sheep) COX-2
property-name: Ratio IC50

a. CC1OC(c2ccc(S(C)(=O)=O)cc2)N(Cc2ccccc2)C1=O (racemic)
b. CC1SC(c2ccc(S(C)(=O)=O)cc2)N(Cc2ccccc2)C1=O (racemic)
Asked: Lab note: check whether a or b shows the higher recorded Ratio IC50. Answer by stating the label of the chosen item.
Given back: a
